test: small-molecule microarray binders of probe aEGFR, primary screen, biochemical, biotinylated probe, 635/667 nm fluorescence (AID 1097); conditions: higher = more signal;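 also: probe is a biotinylated anti-EGFR antibody binding compounds printed on slides; score combines fluorescence near 667 nm and signal to noise of each spot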
TEST READOUT: composite z-score

>  <COMPOUND>
COc1ccc(CCNC(=O)[C@@]2(Sc3ccc(C)cc3)CC(=O)N(C3Cc4ccccc4C3)[C@@H]2c2ccc(CO)cc2I)cc1

>  <composite z-score>
-0.172

$$$$
>  <COMPOUND>
CCc1cccc(NC(=O)O[C@H]2[C@H](OC(=O)Nc3ccccc3-c3ccccc3)[C@@H](OC(=O)Nc3ccccc3-c3ccccc3)[C@@H](OC)O[C@@H]2CO)c1

>  <composite z-score>
0.0506

$$$$
>  <COMPOUND>
C=CC[C@]1(C(=O)NCCCOC)N=C(c2ccc(OCCCO)cc2)O[C@H]1c1ccccc1CN=[N+]=[N-]

>  <composite z-score>
0.286

$$$$

Read the next record carefully.
-- ask Fill in the blank: the reported composite z-score of Cc1ccccc1C(O)C1C=CC2C(=O)N(c3ccccc3)C(=O)C2N1Nc1ccc(C(C)C)cc1 (centres undefined) is ____.
-- reply 0.0461

---

experiment: small-molecule binders of probe aNOTCH2, primary screen, biochemical, small-molecule microarray, 635/667 nm fluorescence (AID 1121); conditions: higher = more signal;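 also: score merges feature fluorescence read at 667 nm with its signal to noise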
param class (str): category from composite z-score; see ranges low: < -0.1; intermediate: ≥ -0.1 and < -0.06; high: ≥ -0.06

# count of solved cases: 5
>  <COMPOUND>
C=CCC(OC(C)=O)[C@@H]1[C@@H](N(Cc2ccc(-c3ccccc3)cc2)C(=O)Cc2ccc(OC)cc2)c2cc(OCCCO)ccc2N1C(=O)Cc1ccc2ccccc2c1 (some centres undefined)

>  <ASSIGNED CATEGORY>
low

$$$$
>  <COMPOUND>
CC(C)C(=C=CC[C@@H](O)c1ccc(OCCO)cc1)C[C@@H](O)COCc1ccccc1

>  <ASSIGNED CATEGORY>
low

$$$$
>  <COMPOUND>
NC(=O)NCC#Cc1ccc2c(c1)[C@]1(C(=O)N2)[C@H](c2ccc(O)cc2)N2[C@H](c3ccccc3)[C@H](c3ccccc3)OC(=O)[C@H]2[C@@H]1C(=O)O

>  <ASSIGNED CATEGORY>
low

$$$$
>  <COMPOUND>
CCCC[C@@H]1C[C@H]1[C@@H](NC(=O)c1ccccc1)c1ccc(C(=O)OC)cc1

>  <ASSIGNED CATEGORY>
high

$$$$
>  <COMPOUND>
CCOC(=O)C[C@H]1[C@H](OC(=O)c2ccc(C(=O)c3ccccc3)cc2)[C@@H](NC(=O)c2ccccc2)c2cc(OCCCO)ccc2N1C(=O)Cc1ccc(OC)cc1

>  <ASSIGNED CATEGORY>
intermediate

$$$$

-- ask # bin label for C[C@H]1NC(=O)[C@@]23C(=O)N[C@@H](Cc4ccccc4)C2[C@H](C)[C@@]2(C)O[C@H]2C3/C=C/C/C=C\CNC(=O)[C@@H]2CCCN2C1=O (some centres undefined)
-- reply low

-- ask Which composite z-score category applies to `CN(C)CCCC[C@@H]1NC(=O)[C@@H]2C[C@H](C(=O)NCCCCCCN)[C@H](c3cccc(OCCO)c3)N2C1=O` here?
-- reply high

-- ask Please report the category associated with `CCCCCCc1nc(-c2ccc(OC)nc2)cc2c1[Si](C(C)C)(C(C)C)O[C@H]2c1ccccc1` , nothing else.
-- reply low

-- ask The entry to classify is `O=C(c1ccccc1)N1C(=O)[C@@]2(Cc3ccccc31)N=C(c1ccc(OCCCO)cc1)O[C@H]2c1ccccc1` ; which class holds it?
-- reply high

Numbers sourced from PubChem BioAssay.
